assay: activity coefficient (dimensionless); of the first substance listed, at infinite dilution; xn = mol fraction of the nth substance listed; settings: 333.15 K; Liquid; Chromatography; x1 = 0
readout-type: activity coefficient

compound | numeric-readout
Cc1ccccc1 [toluene] + CCCCCCCCn1cc[n+](COCCCOC[n+]2ccn(CCCCCCCC)c2C)c1C.N#C[N-]C#N.N#C[N-]C#N | 0.95
CCc1ccccc1 [ethylbenzene] + CCCOC[n+]1ccn(Cc2ccccc2)c1.O=S(=O)([N-]S(=O)(=O)C(F)(F)F)C(F)(F)F | 1.33
CCc1ccccc1 [ethylbenzene] + N#C[N-]C#N.N#C[N-]C#N.c1ccc(Cn2cc[n+](COCCCOC[n+]3ccn(Cc4ccccc4)c3)c2)cc1 | 8.08
CCCCCCCCCCCC [dodecane] + CCCOC[n+]1ccn(C)c1.F[B-](F)(F)F | 1160
ClC(Cl)Cl [trichloromethane] + Cn1cc[n+](COCCCOC[n+]2ccn(C)c2)c1.O=S(=O)([N-]S(=O)(=O)C(F)(F)F)C(F)(F)F.O=S(=O)([N-]S(=O)(=O)C(F)(F)F)C(F)(F)F | 0.89
ClC(Cl)(Cl)Cl [tetrachloromethane] + CCCOC[n+]1ccn(C)c1.O=S(=O)([N-]S(=O)(=O)C(F)(F)F)C(F)(F)F | 3.05

Cited source for all entries: the NIST ThermoML archive (doi:10.1016/j.fluid.2014.11.020)
